target-under-test: Androgen Receptor (Homo sapiens, UniProt P10275+P40337, T878A)
Construct: Compounds have been evaluated in this assay in LNCaP and/or VCaP cells utilizing similar protocols; endogenous in cells; host or cells: LNCaP cells
Sequence (P10275 whole entry T878A): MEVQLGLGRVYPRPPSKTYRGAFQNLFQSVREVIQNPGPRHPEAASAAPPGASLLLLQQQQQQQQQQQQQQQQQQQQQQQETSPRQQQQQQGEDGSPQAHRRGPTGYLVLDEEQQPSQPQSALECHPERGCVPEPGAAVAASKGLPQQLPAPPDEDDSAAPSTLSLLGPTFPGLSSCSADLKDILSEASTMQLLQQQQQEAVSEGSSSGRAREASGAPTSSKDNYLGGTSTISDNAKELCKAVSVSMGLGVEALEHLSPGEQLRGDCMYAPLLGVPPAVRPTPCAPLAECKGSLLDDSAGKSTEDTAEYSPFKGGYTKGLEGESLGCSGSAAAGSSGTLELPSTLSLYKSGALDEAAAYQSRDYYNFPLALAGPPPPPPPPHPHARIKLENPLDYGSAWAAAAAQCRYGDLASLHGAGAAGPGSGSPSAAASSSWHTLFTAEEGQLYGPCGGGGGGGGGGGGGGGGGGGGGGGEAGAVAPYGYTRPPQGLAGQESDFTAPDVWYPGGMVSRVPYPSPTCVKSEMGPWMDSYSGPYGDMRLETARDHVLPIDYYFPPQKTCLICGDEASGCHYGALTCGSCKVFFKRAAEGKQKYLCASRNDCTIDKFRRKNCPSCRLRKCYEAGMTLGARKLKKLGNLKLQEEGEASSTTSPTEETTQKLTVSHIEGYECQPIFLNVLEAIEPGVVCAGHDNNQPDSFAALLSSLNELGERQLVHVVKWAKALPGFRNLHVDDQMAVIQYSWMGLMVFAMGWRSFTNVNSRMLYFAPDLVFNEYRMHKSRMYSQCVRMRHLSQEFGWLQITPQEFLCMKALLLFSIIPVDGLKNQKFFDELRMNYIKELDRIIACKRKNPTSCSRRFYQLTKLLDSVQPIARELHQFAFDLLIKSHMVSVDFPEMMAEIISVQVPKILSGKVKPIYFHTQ
Sequence (P40337 whole entry): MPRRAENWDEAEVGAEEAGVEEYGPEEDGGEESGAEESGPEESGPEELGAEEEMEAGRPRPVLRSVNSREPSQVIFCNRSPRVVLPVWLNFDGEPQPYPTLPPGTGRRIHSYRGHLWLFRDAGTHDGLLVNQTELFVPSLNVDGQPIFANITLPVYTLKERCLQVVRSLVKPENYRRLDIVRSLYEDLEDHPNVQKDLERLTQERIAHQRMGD
Sequence (Q15369 whole entry partner): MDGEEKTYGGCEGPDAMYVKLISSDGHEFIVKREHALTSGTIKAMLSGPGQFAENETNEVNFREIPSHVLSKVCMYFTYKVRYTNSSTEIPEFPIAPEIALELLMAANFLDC
Sequence (Q15370 whole entry partner): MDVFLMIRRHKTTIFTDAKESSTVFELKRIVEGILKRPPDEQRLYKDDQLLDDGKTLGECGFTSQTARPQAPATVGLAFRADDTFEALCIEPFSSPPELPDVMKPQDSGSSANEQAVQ
test-protocol: Androgen Receptor ELISA assay (PathScan AR ELISA) in LNCaP cells: AR degradation, Dmax and DC50
Format: cell-based
experimental-setup: highest percentage of Androgen Receptor degradation
measurement-kind: Dmax

Cc1ncsc1-c1ccc(CNC(=O)[C@@H]2C[C@@H](O)CN2C(=O)[C@H](C(C)C)N2Cc3ccccc3C2=O)c(OCCCOCCCOc2ccc(N3C(=S)N(c4ccc(C#N)c(C(F)(F)F)c4)C(=O)C3(C)C)cc2)c1 :: > 71%

As a next step, examine the compound that follows.
input: Give Dmax (Androgen Receptor (Homo sapiens, UniProt P10275+P40337, T878A)) of the following compound: Cc1ncsc1-c1ccc(CNC(=O)[C@@H]2C[C@@H](O)CN2C(=O)[C@@H](NC(=O)COCCCCOCCCCCOc2ccc(N3C(=S)N(c4ccc(C#N)c(C(F)(F)F)c4)C(=O)C3(C)C)cc2)C(C)(C)C)cc1
output: > 71%

###

# maps each entry to its DC50
target-under-test: Androgen Receptor (Homo sapiens, UniProt P10275+P40337, T878A)
Construct: Compounds have been evaluated in this assay in LNCaP and/or VCaP cells utilizing similar protocols; endogenous in cells; host or cells: LNCaP cells
test-protocol: Androgen Receptor ELISA assay (PathScan AR ELISA) in LNCaP cells: AR degradation, Dmax and DC50
Format: cell-based
experimental-setup: concentration that caused 50% Androgen Receptor degradation

The examples below pair each entry with its known result.
Cc1ncsc1-c1ccc(CNC(=O)[C@@H]2C[C@@H](O)CN2C(=O)[C@H](C(C)C)N2Cc3ccccc3C2=O)c(OCCO[C@@H]2CCC[C@@H]2OCCOc2ccc(N3C(=S)N(c4ccc(C#N)c(C(F)(F)F)c4)C(=O)C3(C)C)cc2)c1 [Example 304] :: 51 to 500 nM
Cc1ncsc1-c1ccc(CNC(=O)[C@@H]2C[C@@H](O)CN2C(=O)[C@@H](NC(=O)COCCOCCOCCOc2ccc(N3C(=S)N(c4ccc(C#N)c(C(F)(F)F)c4)C(=O)C3(C)C)cc2F)C(C)(C)C)cc1 [Example 18] :: 51 to 500 nM
Cc1ncsc1-c1ccc(CNC(=O)[C@@H]2C[C@@H](O)CN2C(=O)[C@@H](NC(=O)COCCOCCOCCCCCOc2ccc(N3C(=S)N(c4ccc(C#N)c(C(F)(F)F)c4)C(=O)C3(C)C)cc2)C(C)(C)C)cc1 [Example 225] :: < 50 nM
Cc1ncsc1-c1ccc(CNC(=O)[C@@H]2C[C@@H](O)CN2C(=O)[C@@H](NC(=O)COCCCOCCN2CCC(c3ccc(N4C(=S)N(c5ccc(C#N)c(C(F)(F)F)c5)C(=O)C4(C)C)cc3)CC2)C(C)(C)C)cc1 [Example 80] :: > 501 nM
Cc1ncsc1-c1ccc(CNC(=O)[C@@H]2C[C@@H](O)CN2C(=O)[C@@H](NC(=O)c2cccc(OCCCCOc3ccc(N4C(=S)N(c5ccc(C#N)c(C(F)(F)F)c5)C(=O)C4(C)C)cc3)c2)C(C)(C)C)cc1 [Example 278] :: 51 to 500 nM

input: Tell me the measured DC50 of Cc1ncsc1-c1ccc(CNC(=O)[C@@H]2C[C@@H](O)CN2C(=O)[C@@H](NC(=O)COCCCOCCCCOc2ccc(N3C(=S)N(c4ccc(C#N)c(C(F)(F)F)c4)C(=O)C3(C)C)cc2)C(C)C)cc1 [Example 29] , please.
output: 51 to 500 nM

input: Tell me the measured DC50 of Cc1ncsc1-c1ccc(CNC(=O)[C@@H]2C[C@@H](O)CN2C(=O)[C@@H](NC(=O)COCCOCCOc2ccc(-c3ccc(N4C(=S)N(c5ccc(C#N)c(C(F)(F)F)c5)C(=O)C4(C)C)cc3F)cc2)C(C)(C)C)cc1 [Example 73] , please.
output: < 50 nM

input: Tell me the measured DC50 of Cc1ncsc1-c1ccc(CNC(=O)[C@@H]2C[C@@H](O)CN2C(=O)[C@@H](NC(=O)COCCCCOCCCOc2ccc(N3C(=S)N(c4ccc(C#N)c(C(F)(F)F)c4)C(=O)C3(C)C)cc2)C(C)(C)C)cc1 [Example 52] , please.
output: < 50 nM

input: Tell me the measured DC50 of Cc1ncsc1-c1ccc(CNC(=O)[C@@H]2C[C@@H](O)CN2C(=O)[C@@H](NC(=O)c2ccccc2OCCOCCOc2ccc(N3C(=S)N(c4ccc(C#N)c(C(F)(F)F)c4)C(=O)C3(C)C)cc2)C(C)(C)C)cc1 [Example 282] , please.
output: 51 to 500 nM

###

# maps each entry to its DC50
target-under-test: Androgen Receptor (Homo sapiens, UniProt P10275)
Construct: endogenous in cells; host or cells: VCaP cells
Sequence (P10275 whole entry): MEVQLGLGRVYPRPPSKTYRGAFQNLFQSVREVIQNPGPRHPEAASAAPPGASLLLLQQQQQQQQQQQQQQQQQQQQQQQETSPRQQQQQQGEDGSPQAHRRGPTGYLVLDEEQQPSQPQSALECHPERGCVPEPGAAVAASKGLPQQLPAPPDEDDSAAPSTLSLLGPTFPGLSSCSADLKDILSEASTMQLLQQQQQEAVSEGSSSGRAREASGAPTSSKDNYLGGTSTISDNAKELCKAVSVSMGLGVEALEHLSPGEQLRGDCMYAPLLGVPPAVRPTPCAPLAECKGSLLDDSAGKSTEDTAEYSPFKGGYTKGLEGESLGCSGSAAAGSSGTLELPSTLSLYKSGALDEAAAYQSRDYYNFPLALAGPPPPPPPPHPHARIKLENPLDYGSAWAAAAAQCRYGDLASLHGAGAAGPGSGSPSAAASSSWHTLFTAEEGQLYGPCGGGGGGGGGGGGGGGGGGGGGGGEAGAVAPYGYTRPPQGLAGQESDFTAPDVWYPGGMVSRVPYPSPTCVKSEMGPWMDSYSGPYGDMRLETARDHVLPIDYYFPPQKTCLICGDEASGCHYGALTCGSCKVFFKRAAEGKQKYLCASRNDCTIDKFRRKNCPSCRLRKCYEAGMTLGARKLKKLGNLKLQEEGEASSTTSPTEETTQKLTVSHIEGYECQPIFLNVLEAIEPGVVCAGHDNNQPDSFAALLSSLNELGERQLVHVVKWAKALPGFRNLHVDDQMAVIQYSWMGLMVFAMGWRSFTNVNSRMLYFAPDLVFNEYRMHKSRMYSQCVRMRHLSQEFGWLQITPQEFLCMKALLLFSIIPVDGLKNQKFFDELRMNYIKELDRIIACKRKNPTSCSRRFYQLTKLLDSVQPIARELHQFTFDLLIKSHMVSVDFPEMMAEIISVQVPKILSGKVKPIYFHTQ
test-protocol: Androgen Receptor ELISA assay (PathScan AR ELISA) in VCaP cells: AR degradation, Dmax and DC50
Type: cell-based
experimental-setup: read-out: VCaP DC50; concentration that caused 50% Androgen Receptor degradation, VCaP cells

The examples below pair each entry with its known result.
Cc1ncsc1-c1ccc([C@H](C)NC(=O)[C@@H]2C[C@@H](O)CN2C(=O)[C@@H](NC(=O)COCCCCOCCCCOc2ccc(N3C(=S)N(c4ccc(C#N)c(C(F)(F)F)c4)C(=O)C3(C)C)cc2F)C(C)(C)C)cc1 :: < 50 nM
Cc1ncsc1-c1ccc(CNC(=O)[C@@H]2C[C@@H](O)CN2C(=O)[C@@H](NC(=O)OCCCCCOc2ccc(-c3ccc(N4C(=S)N(c5ccc(C#N)c(C(F)(F)F)c5)C(=O)C4(C)C)cc3)cc2)C(C)(C)C)cc1 :: < 50 nM
Cc1ncsc1-c1ccc(CNC(=O)[C@@H]2C[C@@H](O)CN2C(=O)[C@@H](NC(=O)COCCCOCCCCOc2ccc(N3C(=S)N(c4ccc(C#N)c(C(F)(F)F)c4)C(=O)C3(C)C)cn2)C(C)(C)C)cc1 :: < 50 nM
Cc1ncsc1-c1ccc(CNC(=O)[C@@H]2C[C@@H](O)CN2C(=O)[C@@H](NC(=O)COCCCCOCCCOc2ccc(N3C(=S)N(c4ccc(C#N)c(C(F)(F)F)c4)C(=O)C3(C)C)cc2)C(C)(C)C)cc1 :: < 50 nM
Cc1ncsc1-c1ccc(CNC(=O)[C@@H]2C[C@@H](O)CN2C(=O)[C@@H](NC(=O)COCCCCOCCCCOc2ccc(N3C(=S)N(c4ccc(C#N)c(C(F)(F)F)c4)C(=O)C3(C)C)cc2F)C(C)(C)C)cc1 :: < 50 nM

input: Tell me the measured DC50 of Cc1ncsc1-c1ccc(CNC(=O)[C@@H]2C[C@@H](O)CN2C(=O)[C@@H](NC(=O)COCCCCOc2ccc(-c3ccc(N4C(=S)N(c5ccc(C#N)c(C(F)(F)F)c5)C(=O)C4(C)C)cc3)cc2)C(C)(C)C)cc1 , please.
output: < 50 nM

input: Tell me the measured DC50 of Cc1ncoc1-c1ccc(CNC(=O)[C@@H]2C[C@@H](O)CN2C(=O)[C@@H](NC(=O)COCCCOCCCCOc2ccc(N3C(=S)N(c4ccc(C#N)c(Cl)c4)C(=O)C3(C)C)cc2)C(C)(C)C)cc1 , please.
output: < 50 nM

input: Tell me the measured DC50 of Cc1ncsc1-c1ccc(CNC(=O)[C@@H]2C[C@@H](O)CN2C(=O)[C@@H](NC(=O)COCCCOCCCCOc2ccc(N3C(=S)N(c4ccc(C#N)c(C(F)(F)F)c4)C(=O)C34CCN(C)CC4)cc2)C(C)(C)C)cc1 , please.
output: < 50 nM

input: Tell me the measured DC50 of Cc1ncsc1-c1ccc(CNC(=O)[C@@H]2C[C@@H](O)CN2C(=O)[C@@H](NC(=O)COCCCOCCCCOc2ccc(N3C(=S)N(c4ccc(C#N)c(C(F)(F)F)c4)C(=O)C34CCOCC4)cc2)C(C)(C)C)cc1 , please.
output: < 50 nM

input: Tell me the measured DC50 of CC(C)(C)[C@H](NC(=O)COCCCOCCCCCOc1ccc(N2C(=S)N(c3ccc(C#N)c(C(F)(F)F)c3)C(=O)C2(C)C)cc1)C(=O)N1C[C@H](O)C[C@H]1C(=O)NCc1ccc(Cl)cc1 , please.
output: > 501 nM

input: Tell me the measured DC50 of Cc1ncsc1-c1ccc(CNC(=O)[C@@H]2C[C@@H](O)CN2C(=O)[C@@H](NC(=O)COCCCCOCCN2CCC(c3ccc(N4C(=S)N(c5ccc(C#N)c(C(F)(F)F)c5)C(=O)C4(C)C)cc3)CC2)C(C)(C)C)cc1 , please.
output: 51 to 500 nM

input: Tell me the measured DC50 of Cc1ncsc1-c1ccc(CNC(=O)[C@@H]2C[C@@H](O)CN2C(=O)[C@@H](NC(=O)COCCCOCCCCOc2ccc(N3C(=S)N(c4ccc(C#N)c(Cl)c4)C(=O)C3(C)C)cc2F)C(C)(C)C)cc1 , please.
output: < 50 nM

input: Tell me the measured DC50 of Cc1ncsc1-c1ccc(CNC(=O)[C@@H]2C[C@@H](O)CN2C(=O)[C@@H](NC(=O)COCCCOc2ccc(-c3ccc(N4C(=S)N(c5ccc(C#N)c(C(F)(F)F)c5)C(=O)C4(C)C)cc3)cc2)C(C)(C)C)cc1 , please.
output: < 50 nM

input: Tell me the measured DC50 of Cc1ncsc1-c1ccc(CNC(=O)[C@@H]2C[C@@H](O)CN2C(=O)[C@@H](NC(=O)COCCCCOCCCOc2ccc(N3C(=S)N(c4ccc(C#N)c(C(F)(F)F)c4)C(=O)C3(C)C)cc2F)C(C)(C)C)cc1 , please.
output: 51 to 500 nM

input: Tell me the measured DC50 of Cc1ncsc1-c1ccc(CNC(=O)[C@@H]2C[C@@H](O)CN2C(=O)[C@@H](NC(=O)CO[C@H](C)[C@@H](C)OCCOCCOc2ccc(N3C(=S)N(c4ccc(C#N)c(C(F)(F)F)c4)C(=O)C3(C)C)cc2)C(C)(C)C)cc1 , please.
output: 51 to 500 nM

input: Tell me the measured DC50 of Cc1ncsc1-c1ccc([C@H](C)NC(=O)[C@@H]2C[C@@H](O)CN2C(=O)[C@@H](NC(=O)COCCCOCCCCCOc2c(F)cc(N3C(=S)N(c4ccc(C#N)c(C(F)(F)F)c4)C(=O)C3(C)C)cc2F)C(C)(C)C)cc1 , please.
output: < 50 nM

input: Tell me the measured DC50 of Cc1ncsc1-c1ccc(CNC(=O)[C@@H]2C[C@@H](O)CN2C(=O)[C@@H](NC(=O)COCCCCCN(C)C(=O)CCCc2ccc(N3C(=S)N(c4ccc(C#N)c(C(F)(F)F)c4)C(=O)C3(C)C)cc2)C(C)(C)C)cc1 , please.
output: < 50 nM

Origin of measurements: patent US11427548B2
